Test system: E. cloacae IFO 12937
test: Minimal Inhibitory Concentration (MIC), agar dilution method
Assay type: cell-based
Parameters: unit not given here
assay setup: Test Microorganism (9) E. cloacae IFO 12937; Trypticase soy agar, 37°C for 18 hours
metric: Minimal Inhibitory Concentration (MIC)
// keep it numeric: no unit symbol after the value

Form: compound = "CC(C)(O)[C@@H]1C(=O)N2C(C(=O)O)=C(SCCCN)C[C@H]12" ; Minimal Inhibitory Concentration (MIC) = 6.25

Form: compound = "CC(C)(O)[C@@H]1C(=O)N2C(C(=O)O)=C(SCCNC=N)C[C@H]12" ; Minimal Inhibitory Concentration (MIC) = 6.25

Form: compound = "CC(C)(O)[C@@H]1C(=O)N2C(C(=O)O)=C(SCCCNC=N)C[C@H]12" ; Minimal Inhibitory Concentration (MIC) = 6.25

Form: compound = "CC(C)(O)[C@@H]1C(=O)N2C(C(=O)O)=C(SCCN3CCCC3)C[C@H]12" ; Minimal Inhibitory Concentration (MIC) = 12.5
